Assay info: BT084 cell growth, single and combined drugs, ICGC_MB145, cisplatin and BGB IC40 combos (AID 1671461);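 also: cells exposed to drugs for 96 hours; 0% = vehicle DMSO and 100% = high DMSO full killing control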
Condition parameters: BT084 medulloblastoma cells, drug combinations, cisplatin combination, at 5 µM, stronger effect = higher value
inhibition listing for selected compounds.

{"Smiles record": "O=C(CCCCCCNC(=O)c1cnc(N(c2ccccc2)c2ccccc2Cl)nc1)NO", "inhibition, %": 78.9}
{"Smiles record": "O=c1[nH]cnc2ccccc12", "inhibition, %": -11.8}
{"Smiles record": "Nc1ccc(-c2ccc3ncc4ccc(=O)n(-c5cccc(C(F)(F)F)c5)c4c3c2)cn1", "inhibition, %": 33.5}
{"Smiles record": "CO[C@H]1/C=C/O[C@@]2(C)Oc3c(C)c(O)c4c(O)c(c(/C=N\\N5CCN(C6CCCC6)CC5)c(O)c4c3C2=O)NC(=O)/C(C)=C\\C=C\\[C@H](C)[C@H](O)[C@@H](C)[C@@H](O)[C@@H](C)[C@H](OC(C)=O)[C@@H]1C", "inhibition, %": -20.9}
{"Smiles record": "CC(C)OC(=O)[C@H](C)N[P@](=O)(OC[C@H]1O[C@@H](n2ccc(=O)[nH]c2=O)[C@](C)(F)[C@@H]1O)Oc1ccccc1", "inhibition, %": -68.9}
{"Smiles record": "N=C1CCCN1Cc1[nH]c(=O)[nH]c(=O)c1Cl", "inhibition, %": -5.35}
{"Smiles record": "COc1cc2ncnc(-n3nc(-c4ccccn4)nc3N)c2cc1OC", "inhibition, %": 63.7}
{"Smiles record": "COc1ccc(C(=O)C2CCN(CC(=O)N(Cc3nc4c(c(=O)[nH]3)COCC4)CC3CC3)CC2)cc1", "inhibition, %": -190}

---

Assay info: growth inhibition of DIPG cells – cell-based, MIPE4.0 library, CellTiter-Glo luminescence, qHTS (AID 1347066);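 also: cells exposed to compound for 48 hours before readout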
Condition parameters: SU-DIPG-VI viability, CellTiter-Glo ATP luminescence
Inconclusive results are not listed. The source made the active and inactive calls. Cut-off not given; nearly all actives show AC50 up to about 30 µM.
Labels: active, inactive

{"Compound": "Cc1ccc2c(=O)c3cccc(CC(=O)O)c3oc2c1C", "Class label": "inactive"}
{"Compound": "Nc1nc2[nH]cc(CCc3ccc(C(=O)N[C@@H](CCC(=O)O)C(=O)O)cc3)c2c(=O)[nH]1", "Class label": "inactive"}
{"Compound": "COc1cc2ncnc(Nc3ccc(F)c(Cl)c3)c2cc1NC(=O)/C=C/CN1CCCCC1", "Class label": "active"}
{"Compound": "COc1cc2c(cc1OC)[C@@H]1Cc3ccc(OC)c(OC)c3CN1CC2", "Class label": "inactive"}
{"Compound": "CN(C)C1CCN(C(=O)c2ccc(NC(=O)Nc3nc(N4CCOCC4)nc(N4CCOCC4)n3)cc2)CC1", "Class label": "active"}
{"Compound": "Cc1cccc(-c2[nH]c(C(C)(C)C)nc2-c2ccc3nccnc3c2)n1", "Class label": "active"}
{"Compound": "Clc1cccc(-c2nnnn2Cc2cccnc2)c1Cl", "Class label": "inactive"}
{"Compound": "COc1ccc(-c2nc(N3CCOCC3)c3sc(CN(C)c4ncc(C(=O)NO)cn4)cc3n2)cn1", "Class label": "active"}
{"Compound": "CN(C)S(=O)(=O)c1ccc2c(c1)C(=Cc1cc3c([nH]1)CCCC3)C(=O)N2", "Class label": "inactive"}
{"Compound": "Cn1cnc2c(F)c(Nc3ccc(Br)cc3Cl)c(C(=O)NOCCO)cc21", "Class label": "inactive"}
{"Compound": "COc1ccc(Cc2nccc3cc(OC)c(OC)cc23)cc1OC", "Class label": "inactive"}
{"Compound": "C#Cc1cccc(Nc2ncnc3cc(OCCOC)c(OCCO)cc23)c1", "Class label": "inactive"}
{"Compound": "CC(NCc1ccc2c(c1)nc(NC(=O)c1ccc(-c3cn[nH]c3)s1)n2CC(C)(C)O)C(C)(C)C (stereo unspecified)", "Class label": "active"}
{"Compound": "CCOc1ccccc1OCCNC(C)Cc1ccc(OC)c(S(N)(=O)=O)c1 (stereo unspecified)", "Class label": "inactive"}
{"Compound": "Nc1nc(=O)n([C@H]2C[C@H](O)[C@@H](CO)O2)cc1F", "Class label": "inactive"}
{"Compound": "Cc1cnn(C)c1C(=O)Nc1cc(Nc2ccc3c(/C=C/c4ccccn4)n[nH]c3c2)ccc1F", "Class label": "active"}
{"Compound": "OC1CCC(Nc2ncc3nc(Nc4c(F)cc(F)cc4F)n([C@@H]4CCOC4)c3n2)CC1 (stereo partly specified)", "Class label": "inactive"}
{"Compound": "O=C(Nc1cc2cc[nH]c2cn1)c1ccccc1", "Class label": "active"}
{"Compound": "O=C(Nc1cccc(Nc2ncc(Br)c(NCCc3cnc[nH]3)n2)c1)N1CCCC1", "Class label": "active"}
{"Compound": "O=C(O)[C@H](Cc1c[nH]c2ccccc12)N1C(=O)c2ccccc2C1=O", "Class label": "inactive"}
{"Compound": "O=C(C=CC#Cc1cccc(NS(=O)(=O)c2ccccc2)c1)NO", "Class label": "active"}

---

period change listing for selected compounds.
Assay info: compounds altering circadian rhythm period length – cell-based, LOPAC library, luminescence reporter (AID 2774);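 also: values are relative to mean of DMSO wells on each plate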
Condition parameters: circadian reporter cells, at 7 µM, actives lie on both sides
Active and inactive are the calls of the source. How the calls were made is not given here.
Measurement name: period change

{"Compound": "CO/N=C(\\C(=O)N[C@@H]1C(=O)N2C(C(=O)O)=C(COC(C)=O)CS[C@H]12)c1csc(N)n1 (stereo in doubt)", "Observed result": "-0.095 h (inactive)"}
{"Compound": "C[C@H](Cc1ccc(O)c(O)c1)[C@@H](C)Cc1ccc(O)c(O)c1", "Observed result": "0.005 h (inactive)"}
{"Compound": "CC(C)C1C2CCC(C2)C1N (stereo unspecified)", "Observed result": "-0.025 h (inactive)"}
{"Compound": "CCN(CC)CCCCCCCCOC(=O)c1cc(OC)c(OC)c(OC)c1", "Observed result": "-0.085 h (inactive)"}
{"Compound": "O=c1c2ccccc2nc2n1CCc1c-2[nH]c2ccccc12", "Observed result": "0.11 h (inactive)"}
{"Compound": "CNCCC(Oc1ccccc1C)c1ccccc1 (stereo unspecified)", "Observed result": "0.255 h (inactive)"}
{"Compound": "CNC(=O)[C@H]1O[C@@H](n2cnc3c(NCc4cccc(I)c4)ncnc32)C(O)[C@H]1O (stereo partly specified)", "Observed result": "-0.015 h (inactive)"}
{"Compound": "O=c1oc(Cl)c(Cl)c2ccccc12", "Observed result": "-0.015 h (inactive)"}
{"Compound": "COc1cc2ncnc(Nc3cccc(Cl)c3)c2cc1OC", "Observed result": "0.545 h (inactive)"}
{"Compound": "Nc1ccc2c3c(cccc13)C(=O)NC2=O", "Observed result": "0.025 h (inactive)"}
{"Compound": "O=C1c2c(O)cc(O)cc2OC(c2ccc(O)c(O)c2)C1O (stereo unspecified)", "Observed result": "-0.11 h (inactive)"}

---

Assay info: drug combination growth inhibition, ovarian cancer – cell-based, oncology-focused library, rucaparib conditional, profiling panel (AID 1508598)
Condition parameters: patient-derived ovarian cancer cells, CellTiter-Glo viability, 144 h; at 5 µM; OCI-C5x cells; without rucaparib; stronger effect = lower value
Measurement name: viability (%)

{"Compound": "Nc1ccccc1NC(=O)c1ccc(CNc2nccc(-c3cccnc3)n2)cc1", "Measurement name": "viability", "Units": "%", "Observed result": 5.7}
{"Compound": "O=C(CCCCCCC(=O)Nc1ccc([C@H]2O[C@@H](CSc3nc(-c4ccccc4)c(-c4ccccc4)o3)C[C@@H](c3ccc(CO)cc3)O2)cc1)NO", "Measurement name": "viability", "Units": "%", "Observed result": 158}
{"Compound": "COc1cc(Nc2ncc3c(n2)-c2ccc(Cl)cc2C(c2c(F)cccc2OC)=NC3)ccc1C(=O)O", "Measurement name": "viability", "Units": "%", "Observed result": 34.9}
{"Compound": "CNC(=O)c1cc(Oc2ccc(NC(=O)Nc3cc(C(C)(C)C)nn3-c3ccc4ncccc4c3)c(F)c2)ccn1", "Measurement name": "viability", "Units": "%", "Observed result": 8.93}
{"Compound": "NC1(c2ccc(-c3nc4ccn5c(=O)[nH]nc5c4cc3-c3ccccc3)cc2)CCC1", "Measurement name": "viability", "Units": "%", "Observed result": 144}
{"Compound": "CNc1nc(-c2ccc3c(N)n[nH]c3c2)cc(N2C[C@@H](C(=O)NC3CCCCC3)CC[C@H]2C)n1", "Measurement name": "viability", "Units": "%", "Observed result": 155}
{"Compound": "O=C(O)c1ccc2c(c1)nc(Nc1cccc(Cl)c1)c1ccncc12", "Measurement name": "viability", "Units": "%", "Observed result": 88.1}
{"Compound": "COc1ccc2cc(-c3nc(-c4ccc(S(C)=O)cc4)[nH]c3-c3ccncc3)ccc2c1 (stereo not drawn)", "Measurement name": "viability", "Units": "%", "Observed result": 113}

Where these numbers come from: PubChem BioAssay
